Tested System: T1, C1s in normal human serum (NHS, CompTech NHS) (human, UniProt P09871 16-688)
T1 sequence (looked up): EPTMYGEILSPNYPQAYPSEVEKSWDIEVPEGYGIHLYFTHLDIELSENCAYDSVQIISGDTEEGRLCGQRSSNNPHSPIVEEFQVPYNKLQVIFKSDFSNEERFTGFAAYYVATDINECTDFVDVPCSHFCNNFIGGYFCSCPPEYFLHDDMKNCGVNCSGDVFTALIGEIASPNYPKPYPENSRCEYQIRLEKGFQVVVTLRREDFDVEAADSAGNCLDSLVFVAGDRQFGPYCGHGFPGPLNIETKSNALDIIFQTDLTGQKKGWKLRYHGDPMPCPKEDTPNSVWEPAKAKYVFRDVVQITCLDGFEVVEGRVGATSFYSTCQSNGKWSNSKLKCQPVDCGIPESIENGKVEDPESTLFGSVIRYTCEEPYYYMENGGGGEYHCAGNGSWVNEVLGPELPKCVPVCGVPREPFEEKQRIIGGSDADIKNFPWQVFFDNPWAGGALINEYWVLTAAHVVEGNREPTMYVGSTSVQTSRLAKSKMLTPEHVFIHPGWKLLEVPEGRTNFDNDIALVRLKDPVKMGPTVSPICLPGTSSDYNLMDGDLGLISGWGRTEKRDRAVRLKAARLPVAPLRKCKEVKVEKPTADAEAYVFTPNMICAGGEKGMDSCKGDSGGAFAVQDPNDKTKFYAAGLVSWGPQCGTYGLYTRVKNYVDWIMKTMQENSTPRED
Protocol: cell-based or functional assay
Parameter IC50, inhibition of IgM-induced C4 deposition from NHS: see the listing below.
# output: bare number, implied unit µg/mL

Determine from records and report IC50, inhibition of IgM-induced C4 deposition from NHS for Anti-C1s antibody hz2-8(H1L2) (antibody, V domains shown, Humanized, human IgG1 / kappa) VH: QVQLVQSGAEVKKPGASVKVSCKASGFNIKEYYMHWVRQAPEQGLEWMGWIDPENGDTIYAQKFQGRVTITADTSTNTAYMELSSLRSEDTAVYYCARSRLFFAYWGQGTLVTVSS VL: DIQMTQSPKSLSASVGDRVTITCRASQDVRTALDWYQQKPGQSPKLLIYSASYRYSGVPSRFSGSGSGTDFTLTISSLQPEDFATYYCQQQYTTPYTFGQGTKLEIKR
0.2
